target: full-length androgen receptor (Homo sapiens (Human))
Sequence (P10275 whole entry): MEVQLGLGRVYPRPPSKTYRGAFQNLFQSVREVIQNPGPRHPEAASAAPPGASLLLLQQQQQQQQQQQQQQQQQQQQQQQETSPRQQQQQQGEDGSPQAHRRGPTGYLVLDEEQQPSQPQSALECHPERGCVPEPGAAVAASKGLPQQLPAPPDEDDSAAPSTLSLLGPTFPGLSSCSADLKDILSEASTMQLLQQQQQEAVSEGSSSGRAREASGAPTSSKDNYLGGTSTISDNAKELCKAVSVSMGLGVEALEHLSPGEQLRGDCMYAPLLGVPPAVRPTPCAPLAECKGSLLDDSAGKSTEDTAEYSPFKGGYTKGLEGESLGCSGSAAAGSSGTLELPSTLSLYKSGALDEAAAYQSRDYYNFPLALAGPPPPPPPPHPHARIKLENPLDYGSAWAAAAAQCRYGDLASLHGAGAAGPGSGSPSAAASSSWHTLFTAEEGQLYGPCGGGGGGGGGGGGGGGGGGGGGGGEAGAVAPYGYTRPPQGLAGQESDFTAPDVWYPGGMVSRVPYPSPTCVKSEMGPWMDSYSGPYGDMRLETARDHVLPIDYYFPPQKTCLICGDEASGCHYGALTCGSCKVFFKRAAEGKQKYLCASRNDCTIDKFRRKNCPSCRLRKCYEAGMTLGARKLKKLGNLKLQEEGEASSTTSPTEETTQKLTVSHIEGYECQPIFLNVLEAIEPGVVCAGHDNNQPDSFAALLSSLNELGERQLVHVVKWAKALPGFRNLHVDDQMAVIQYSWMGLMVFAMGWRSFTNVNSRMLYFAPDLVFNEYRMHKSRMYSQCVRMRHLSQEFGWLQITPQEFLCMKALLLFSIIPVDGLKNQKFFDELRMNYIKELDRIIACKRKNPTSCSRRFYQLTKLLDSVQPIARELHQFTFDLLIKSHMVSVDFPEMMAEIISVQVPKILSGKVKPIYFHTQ
procedureSummary: AR antagonism assay
Assay type: cell-based
pIC50: −log10 of the molar value.

compound | pIC50
CC[C@@]1(O)C(=O)OCc2c1cc1n(c2=O)Cc2cc3c(CN(C)C)c(OC4CCN(CCCCCCN(C)c5ccc([C@H]6C[C@@]7(C)C(CC[C@]7(OC(C)=O)C(C)=O)C7CCC8=CC(=O)CCC8=C76)cc5)CC4)ccc3nc2-1 (stereo partly shown) | < 6.00
CC[C@@]1(O)C(=O)OCc2c1cc1n(c2=O)Cc2cc3c(CN(C)C)c(OC4CCN(CCCCCCCN(C)c5ccc([C@H]6C[C@@]7(C)C(CC[C@]7(OC(C)=O)C(C)=O)C7CCC8=CC(=O)CCC8=C76)cc5)CC4)ccc3nc2-1 (stereo partly shown) | < 6.00
CC[C@@]1(O)C(=O)OCc2c1cc1n(c2=O)Cc2cc3c(CN4CCN(C(=O)CCCCCOc5ccc(C(=O)N[C@H]6CC[C@H](Oc7ccc(C#N)c(Cl)c7)CC6)cc5)CC4)c(O)ccc3nc2-1 | 6.30 to 8.00
CC[C@@]1(O)C(=O)OCc2c1cc1n(c2=O)Cc2cc3c(CN(C)C)c(OCCCCCOc4ccc(C(=O)N[C@H]5CC[C@H](Oc6ccc(C#N)c(Cl)c6)CC5)cc4)ccc3nc2-1 | 6.30 to 8.00
CC[C@@]1(O)C(=O)OCc2c1cc1n(c2=O)Cc2cc3c(CN4CCN(C(=O)C5CCN(c6ccc(C(=O)N[C@H]7CC[C@H](Oc8ccc(C#N)c(Cl)c8)CC7)nn6)CC5)CC4)c(O)ccc3nc2-1 | 6.30 to 8.00
CC[C@@]1(O)C(=O)OCc2c1cc1n(c2=O)Cc2cc3c(CN4CCN(CC5CCN(c6ccc(C(=O)N[C@H]7CC[C@H](Oc8ccc(C#N)c(Cl)c8)CC7)nn6)CC5)CC4)c(O)ccc3nc2-1 | 6.30 to 8.00
CC[C@@]1(O)C(=O)OCc2c1cc1n(c2=O)Cc2cc3c(CN4CCC(N(C)C(=O)CO[C@H]5CC[C@H]6[C@@H]7CC[C@H]8CC(=O)CC[C@]8(C)[C@H]7CC[C@]56C)CC4)c(O)ccc3nc2-1 | < 6.00

----------
Form field: GI50 (one value per entry).
Test system: LNCap cells
procedureSummary: Cell viability assay, LNCap
Type: cell-based
measurementContext: Homo sapiens, LNCaP, 144 h, read-out: LNCap (GI50, nM)

molecule | GI50
CC[C@@]1(O)C(=O)OCc2c1cc1n(c2=O)Cc2cc3c(CN(C)C)c(OC4CCN(CCCCCCCN(C)c5ccc([C@H]6C[C@@]7(C)C(CC[C@]7(OC(C)=O)C(C)=O)C7CCC8=CC(=O)CCC8=C76)cc5)CC4)ccc3nc2-1 (some centres unmarked) | 10 to 500 nM
CC[C@@]1(O)C(=O)OCc2c1cc1n(c2=O)Cc2cc3c(CN(C)C)c(OC(=O)N4CCN(CCCCCCO[C@@H]5CC[C@@H]6[C@H]7CC[C@@H]8CC(=O)CC[C@@]8(C)[C@@H]7CC[C@]65C)CC4)ccc3nc2-1 | 10 to 500 nM

----------
System: LNCap cells
procedureSummary: Cell viability assay, LNCap
Type: cell-based
measurementContext: Homo sapiens, LNCaP, 144 h, read-out: LNCap (GI50, nM)

structureAsSmiles | GI50
CC[C@@]1(O)C(=O)OCc2c1cc1n(c2=O)Cc2cc3c(CN(C)C)c(OC(=O)N4C[C@@H](C)N(CCCCCCN(C)c5ccc([C@H]6C[C@@]7(C)[C@@H](CC[C@]7(OC(C)=O)C(C)=O)[C@@H]7CCC8=CC(=O)CCC8=C76)cc5)C[C@@H]4C)ccc3nc2-1 | 501 to 1000 nM
CC[C@@]1(O)C(=O)OCc2c1cc1n(c2=O)Cc2cc3c(CN(C)C)c(OC(=O)N4CCN(C(=O)C5CCN(c6ccc(C(=O)N[C@H]7CC[C@H](Oc8ccc(C#N)c(Cl)c8)CC7)nn6)CC5)CC4)ccc3nc2-1 | 10 to 500 nM

FYI, the data here is from patent US11834458B2.
